tested on: SK-MEL-2; experiment: NCI tumour cell line growth inhibition, 48 h
Structures can show the parent of a compound that is named as a salt. Calls of active or inactive are those of the source. Cut-off read from the data, not from the text of the source: active = GI50 up to about 1.1 µM and inactive = higher.
Just give me one of these, please: true (1) for active, false (0) for inactive

As a guide, the following entries are already answered.
compound | assigned category
COc1cccc(/C=N/n2c(C)n[nH]c2=O)c1 | false (0)
CC(NC(C)(C)C)C(=O)c1cccc(Cl)c1 (stereo unspecified) [BUPROPION HYDROCHLORIDE] | false (0)
Cc1ccc(S(=O)(=O)NC(=O)NCCc2ccc(O)c(O)c2)cc1 | false (0)
O=C(O)C(Cc1ccccc1)N1C(=O)c2ccccc2C1=O (stereo unspecified) | false (0)
CC(C)=CC1CC(C)C2(CCC3(C)CC4C(C(=O)CC4(C)O)/C(C=O)=C\CC32)O1 (stereo unspecified) | true (1)

Incoming: Dear all, I need the recorded test outcome for CCOc1cc(C2SCC(=O)N2c2ccc(Oc3ccc(Cl)cc3)c(Cl)c2)ccc1O (stereo unspecified) , thank you.
Outgoing: false (0)

Incoming: Dear all, I need the recorded test outcome for CN1C(=O)C(=CN)C(=O)N(C)C1=O , thank you.
Outgoing: false (0)

Incoming: Dear all, I need the recorded test outcome for Nn1c(-c2cccc(Cl)c2)nc2ccccc2c1=O , thank you.
Outgoing: false (0)

Incoming: Dear all, I need the recorded test outcome for O=c1ccn([C@@H]2O[C@H](CO)[C@@H](O)[C@H]2F)c(=O)[nH]1 , thank you.
Outgoing: false (0)

Incoming: Dear all, I need the recorded test outcome for COc1ccc2nc3ccccc3c(NCCCCCCN(C)CCCl)c2c1 , thank you.
Outgoing: true (1)

Incoming: Dear all, I need the recorded test outcome for Cc1ccc(-n2nncc2[Si](C)(C)C)s1 , thank you.
Outgoing: false (0)

====

tested on: OVCAR-8; assay: NCI tumour cell line growth inhibition, 48 h
Activity calls are given as the source filed them. Rule as the data show it: active = GI50 up to about 1.1 µM and inactive = higher.
readout: GI50

Incoming: Under OVCAR-8: report GI50 of COC(=O)[C@]1(C)CC[C@]2(C)CC[C@]3(C)C4[C@H]5Oc6c(cc7c(c6C)CCC6[C@@]7(C)CC[C@@]7(C)C8[C@](C)(CCC[C@@]8(C)C(=O)OC)CC[C@]67C)O[C@H]5c5c(cc6c(c5C)O[C@@]5(C)C7=CC=C8[C@@](C)(CC[C@@]9(C)[C@@H]%10C[C@](C)(C(=O)OC)CC[C@]%10(C)CC[C@]89C)C7=CC(=O)[C@@]5(O)O6)[C@]4(C)CC[C@@]3(C)C2C1 (some centres not stated) .
Outgoing: 2.63 µM (inactive)

Incoming: Under OVCAR-8: report GI50 of COC(=O)c1ccc(COC(=O)N2C=CCC2C(=O)O)cc1 (configuration not stated) .
Outgoing: > 100 µM (inactive)

Incoming: Under OVCAR-8: report GI50 of COC(=O)[C@@H](COC(=O)/C=C/c1ccc(OC(C)=O)c(OC(C)=O)c1)NC(=O)/C=C/c1ccc(OC(C)=O)c(OC(C)=O)c1 .
Outgoing: 22.5 µM (inactive)

Incoming: Under OVCAR-8: report GI50 of [N-]=[N+]=Nc1cc(=O)[nH]nc1-c1ccccc1 .
Outgoing: > 100 µM (inactive)

Incoming: Under OVCAR-8: report GI50 of N/N=C1\C(=O)N(C2CCCCC2)C(=O)C1C(=O)NC1CCCCC1 (configuration not stated) .
Outgoing: > 100 µM (inactive)

Incoming: Under OVCAR-8: report GI50 of O=C(O)CCC(=O)Oc1ccc(O)c2c1CCCC2=O .
Outgoing: > 100 µM (inactive)

Incoming: Under OVCAR-8: report GI50 of CCOC(=O)/C(C#N)=C1\c2c([nH]c(=S)[nH]c2=O)Oc2ccc3ccccc3c21 .
Outgoing: 54.7 µM (inactive)
